- system: T1, LukE (S. aureus, UniProt Q2FXB0 24-306)
- T1 construct: also called leukotoxin E
- measurement notes: ELISA after cis-display panning
measurement type: binding result

>  <binder>
Luk39 (designed binder, not shown: C-terminal poly-histidine tag) LPAPKNLVVSRVTEDSARLSWTAPDAAFDSFLIQYQESEKVGEAIVLTVPGSERSYDLTGLKPGTEYTVSIYGVRVFYFSVEPTWFSNPLSAIFTT

>  <binding result>
binds

$$$$
>  <binder>
Luk33 (designed binder, not shown: C-terminal poly-histidine tag) LPAPKNLVVSRVTEDSARLSWTAPDAAFDSFLIQYQESEKVGEAIVLTVPGSERSYDLTGLKPGTEYTVSIYGVAFIPDEIEFSNPLSAIFTT

>  <binding result>
binds

$$$$
>  <binder>
Luk57 (designed binder, not shown: C-terminal poly-histidine tag) LPAPKNLVVSRVTEDSARLSWTAPDAAFNSFYIEYFEWFPAGEAIVLTVPGSERSYDLTGLKPGTEYAVIIHGVKGGQRSTPLSAIFTT

>  <binding result>
binds

$$$$
>  <binder>
Luk37 (designed binder, not shown: C-terminal poly-histidine tag) LPAPKNLVVSRVTEDSARLSWTAPDAAFDSFLIQYQESEKVGEAIVLTVPGSERSYDLTGLKPGTEYTVSIYGVVGWPLFIQSNPLSAIFTT

>  <binding result>
binds

$$$$
>  <binder>
Luk45 (designed binder, not shown: C-terminal poly-histidine tag) LPAPKNLVVSRVTEDSARLSWTAPDAAFDSFLIQYQESEKVGEAIVLTVPGSERSYDLTGLKPGTEYTVSIYGVAWLTNAYEWEFSNPLSAIFTT

>  <binding result>
binds

$$$$
>  <binder>
Luk40 (designed binder, not shown: C-terminal poly-histidine tag) LPAPKNLVVSRVTEDSARLSWTAPDAAFDSFLIQYQESEKVGEAIVLTVPGSERSYDLTGLKPGTEYTVSIYGVSYAGEPLLWIYSNPLSAIFTT

>  <binding result>
binds

$$$$
>  <binder>
Luk47 (designed binder, not shown: C-terminal poly-histidine tag) LPAPKNLVVSRVTEDSARLSWTAPDAAFDSFGIQYFETTESGEAIVLTVPGSERSYDLTGLKPGTEYVVFISGVKGGPLSWPLSAIFTT

>  <binding result>
binds

$$$$
>  <binder>
Luk53 (designed binder, not shown: C-terminal poly-histidine tag) LPAPKNLVVSRVTEDSARLSWTAPDAAFDSFTIQYFEAEANGEAIVLTVPGSERSYDLTGLKPGTEYLVFIVGVKGGHSSLPLSAIFTT

>  <binding result>
binds

$$$$

Q. Quick check: binding result of Luk32 (designed binder, not shown: C-terminal poly-histidine tag) LPAPKNLVVSRVTEDSARLSWYHENAYLLFDSFLIQYQESEKVGEAIVLTVPGSERSYDLTGLKPGTEYTVSIYGVVYDLTPEKRSSNPLSAIFTT ?
A. binds
